Attribution: patent US20130136743A1

Each item that follows carries a reported Ratio AB invention/humanized 12G4.
# MEASUREMENT TARGET: T1, AMHR-II/Fc fusion protein (human, UniProt Q16671 18-149, limits assumed)
# T1 construct: also called AMHR-II recombinant receptor expressed in the form of fusion protein with a region Fc; recombinant target; not shown: Fc region
# T1 sequence (Q16671 18-149 limits assumed): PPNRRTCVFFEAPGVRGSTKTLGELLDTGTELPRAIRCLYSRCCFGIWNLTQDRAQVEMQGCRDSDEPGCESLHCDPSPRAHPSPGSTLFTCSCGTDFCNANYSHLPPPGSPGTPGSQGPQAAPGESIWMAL
# ASSAY PROTOCOL: phage-scFv ELISA on AMHRII-Fc; mean of at least four values, standard deviation in parentheses

BINDER	Ratio AB invention/humanized 12G4
4E_153 (mutated huLFB112 phage-scFv clone) (scFv, V domains shown, scFv on M13 phage, tested as culture supernatant; not shown: The 15-residue scFv peptide linker (positions 116-130 of the scFv numbering) and the M13 phage display partner) VH: QVQLVQSGAEVKKPGASVKVSCKASGYTFTSYHIHWVRQAPGQRLEWMGWIYPGDNSTKYSQKFQGRVTNTRDTSASTAYMELSSLRSEDTAVYYCTRGDRSAYWGQGTLVTVSS VL: DIQMTQSPSTLSASVGDRVTITCRASSSVRYIAWYQQKPGKAPKLLIYSTSSLESGVPSRFSGSGSGTEFTLTISSLQPDDFATYYCLQWSSYPWTFGGGTKVEIK	2
6B_87 (mutated huLFB112 phage-scFv clone) (scFv, V domains shown, scFv on M13 phage, tested as culture supernatant; Q1E: TAG codon suppressed, translated to E in E. coli XL1-blue; not shown: The 15-residue scFv peptide linker (positions 116-130 of the scFv numbering) and the M13 phage display partner) VH: EVQLVQSGAEVKKPGASVKVSCKVSGYTFTSYHIHWVRQAPGQRLEWMGWIYPGDDSTKYSQKFQGRVTITRDTSASTAYMELSSLRSEDTAVYYCTRGDRFAYWGQGTLVTVSS VL: DIQMTQSPSTLSASVGDRVTITCRASSSVRYIAWYQQKPGKAPKLLIYSTSSLESGVPSRFSGSGSGTEFTLTISSLQPDDFATYYCLQWSSYPWTFGGGTKVEIK	2.1
4C_35 (mutated huLFB112 phage-scFv clone) (scFv, part only; not given: scFv linker and phage partner, V domains shown, not shown: another chain or arm of the molecule; large carriers; small tags and cut ends) VH: QVQLVQSGAEVKKPGASVKVSCKASGYTFTSYHIHWVRQAPGQRPEWMGWIYPGDDSTKYSQKFQGRVTITRDTSASTAYMELSSLRSEDTAVYYCTRGDRFAYWGQGTLVTVSS VL: DIQMTQSPSTLSASVGDRVTITCRASSSVRYIAWYQQKPGKAPKLLIYSTSSLKSGVPSRFSGSGSGTEFTLTISSLQPDDFATYYCLQWSSYPWTFGGGTKVEIK	4.3
4F_196 (mutated huLFB112 phage-scFv clone) (scFv, part only; not given: scFv linker and phage partner, V domains shown, not shown: another chain or arm of the molecule; large carriers; small tags and cut ends) VH: QVELVQSGAEVKKPGASVKVSCKASGYTFTSYHIHWVRQAPGQRLEWMGWIYPGDDSTKYSRKFQGRVTITRDTSASTAYMELSSLRSDDTAVYYCTRGDRFAYWGQGTLVTVSS VL: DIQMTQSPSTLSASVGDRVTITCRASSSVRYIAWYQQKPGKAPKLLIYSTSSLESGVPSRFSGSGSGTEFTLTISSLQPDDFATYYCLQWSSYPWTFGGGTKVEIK	3
3D_74 (mutated huLFB112 phage-scFv clone) (scFv, V domains shown, scFv on M13 phage, tested as culture supernatant; not shown: The 15-residue scFv peptide linker (positions 116-130 of the scFv numbering) and the M13 phage display partner) VH: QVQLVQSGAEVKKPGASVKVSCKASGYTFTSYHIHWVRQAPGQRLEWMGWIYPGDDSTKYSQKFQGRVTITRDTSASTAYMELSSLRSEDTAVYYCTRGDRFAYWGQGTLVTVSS VL: DIQMTQSPSTLSASVGDRVTITCRASSPVRYIAWYQQKPGKAPKLLIYSTSSLESGVPSRFSGSGSGTEFTLTISSLQPDDFATYYCLQWSSYPWTFGGGTKVEIK	2
5B_18 (mutated huLFB112 phage-scFv clone) (scFv, V domains shown, scFv on M13 phage, tested as culture supernatant; Q3E: TAG codon suppressed, translated to E in E. coli XL1-blue; not shown: The 15-residue scFv peptide linker (positions 116-130 of the scFv numbering) and the M13 phage display partner) VH: QVELVQSGTEVKKPGASVKVSCKASGYTFTSYHIHWVRQAPGQRLEWMGWIYPGDDSTKYSQKFQGRVTITRDTSASTAYMELSSLRSEDTAVYYCTRGDRFTYWGQGTLVTVSS VL: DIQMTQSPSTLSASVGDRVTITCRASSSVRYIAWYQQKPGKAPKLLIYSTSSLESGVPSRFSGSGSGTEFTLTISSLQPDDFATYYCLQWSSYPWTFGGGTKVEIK	1.8
6B_14 (mutated huLFB112 phage-scFv clone) (scFv, V domains shown, scFv on M13 phage, tested as culture supernatant; Q39E: TAG codon suppressed, translated to E in E. coli XL1-blue; not shown: The 15-residue scFv peptide linker (positions 116-130 of the scFv numbering) and the M13 phage display partner) VH: QVQLVQSGAEVKKPGASVKVSCKASGYTFTGYHIHWVREAPGQRLEWMGWIYPGDDSTKYSQKFQGRVTITRDTSASTAYMELSSLRSEDTAVYYCTRGDRFAYWGQGTLVTVSS VL: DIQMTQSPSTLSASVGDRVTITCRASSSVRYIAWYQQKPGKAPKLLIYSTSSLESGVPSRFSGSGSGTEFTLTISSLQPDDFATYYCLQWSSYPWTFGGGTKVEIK	2.6
5B_81 (mutated huLFB112 phage-scFv clone) (scFv, part only; not given: scFv linker and phage partner, V domains shown, not shown: another chain or arm of the molecule; large carriers; small tags and cut ends) VH: QVQLVQSGAEVKKPGASVKVSCKASGYTFTSYHIHWVRQAPGQRPEWMGWIYPGDDSTKYSQKFQGRVTITRDTSASTAYMELSSLRSEDTAVYYCTRGDRFAYWGQGTLVTVSS VL: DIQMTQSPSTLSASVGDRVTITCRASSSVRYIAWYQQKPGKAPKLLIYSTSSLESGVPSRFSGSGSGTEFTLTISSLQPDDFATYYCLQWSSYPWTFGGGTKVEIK	3.5
5A_66 (mutated huLFB112 phage-scFv clone) (scFv, V domains shown, scFv on M13 phage, tested as culture supernatant; not shown: The 15-residue scFv peptide linker (positions 116-130 of the scFv numbering) and the M13 phage display partner) VH: QVQLVQSGAEVKKPGASVKVSCKASGYTFTSYHIHWVRQAPGQRLEWMGWIYPGDDSTKYSQKFQGRMTITRDTSASTAYMELSSLRSEDTAVYYCTRGDRFAYWGQGTLVTVSS VL: DIQMTQSPSTLSASVGDRVTITCRASSSVRYIAWYQQKPGKAPKLLIYSTSSLESGVPSRFSGSGSGTEFTLTISSLQPDDSATYYCLQWSSYPWTFGGGTKVEIK	2.2
6B_76 (mutated huLFB112 phage-scFv clone) (scFv, V domains shown, scFv on M13 phage, tested as culture supernatant; not shown: The 15-residue scFv linker (positions 116-130 of the scFv numbering) and the M13 phage display partner) VH: QVQLVQSGAEVKKPGASVKVSCKASGYTFTSYHIHWVRQVPGQRLEWMGWIYPGDDSTKYSQKFQGRVTITRDTSASTAYMELSSLRSEDTAVYYCTRGDRFAYWGQGTLVTVSS VL: DIQMTQSPSTLSASVGDRVTITCRASSSVRYIAWYQQKPGKAPKLLIYPTSSLESGVPSRFSGSGSGTEFTLTISSLQPDDFATYYCLQWSSYPWTFGGGTKVEIK	1.7
